# assayProcedure: Growth inhibition of human HCT116 cells at 10 uM after 48 hrs by SRB method
# Assay type: functional
# particulars: HCT-116, 48 h, read-out: GI
reportedMetric: inhibition of growth at 10 µM (%)
// return numeric value only (unit: %, not printed)

Asked: Any idea what inhibition of growth at 10 µM was measured for `O=C(CN1CCN(c2nnc(-c3ccccc3)c3ccccc23)CC1)Nc1nc(-c2ccccc2)cs1` ?
Given back: 38

Asked: Any idea what inhibition of growth at 10 µM was measured for `Cc1nc(NC(=O)CN2CCN(c3nnc(-c4ccccc4)c4ccccc34)CC2)sc1C(=O)Nc1ccccc1` ?
Given back: 65

Asked: Any idea what inhibition of growth at 10 µM was measured for `COc1ccc(-c2csc(NC(=O)CN3CCN(c4nnc(-c5ccccc5)c5ccccc45)CC3)n2)cc1` ?
Given back: 32

Asked: Any idea what inhibition of growth at 10 µM was measured for `CCOC(=O)c1ccc(NC(=O)CN2CCN(c3nnc(-c4ccccc4)c4ccccc34)CC2)cc1` ?
Given back: 82

Asked: Any idea what inhibition of growth at 10 µM was measured for `O=C(CN1CCN(c2nnc(-c3ccccc3)c3ccccc23)CC1)Nc1nc(-c2ccc(Cl)cc2)cs1` ?
Given back: 38
